Values compiled from ChEMBL document CHEMBL1155111.

Assay Name: AUC (0 to infinity) in rat at 10 mg/kg, po
Type: ADME, organism-based
Design: time infinity, dose 10 mg/kg, route oral
Applied Conditions: plasma

>  <Mol Smiles>
O=C(CO)NC1CCN(Cc2ccc(Oc3nc4ccccc4s3)cc2)CC1

>  <Unit Abbrev>
µM·h

>  <AUC(0-inf)>
33

$$$$

----------
Assay Name: Half life in Beagle dog plasma at 3 mg/kg, iv
Type: ADME, organism-based, Canis lupus familiaris
Parameters: dose 3 mg/kg, route intravenous

>  <Mol Smiles>
c1ccc2oc(Oc3ccc(OCCN4CCCCC4)cc3)nc2c1

>  <half-life [h]>
1

$$$$

----------
Assay Name: Volume of distribution at steady state in rat at 3 mg/kg, iv
Type: ADME, organism-based
Set-up: dose 3 mg/kg, route intravenous
Applied Conditions: in vivo, read-out: Vdss

>  <Mol Smiles>
c1ccc2oc(Oc3ccc(OCCN4CCCCC4)cc3)nc2c1

>  <Unit Abbrev>
L/kg

>  <Vd>
7

$$$$
